- assayRemarks: Quantitative High-Throughput drug screen in 47 multiple myeloma cell lines against the NCATS MIPE library collection: MM1R_ATCC cell viability assay (AID 1918981); also: nearly all actives have a fitted effect of over 35% in size
- runParameters: MM1R multiple myeloma cells, CellTiter-Glo viability, 48 h; series mostly up to 45.8 µM
Inconclusive results are not listed. Activity calls are given as the source filed them. Calls follow the shape of the dose curve; as a rule, active = well fitted cell-killing curve with a large enough effect; inconclusive = small, poorly fitted or top-dose-only effect, or effect the other way; inactive = no such curve, though single readings can be large or run the other way. Non-standard residues stand in square brackets, D forms with d. Residues, ends and D or L forms follow the SMILES beside them. *: point of attachment. Nva = CCC[C@H](N)C(=O)O; Cbz = O=C(OCc1ccccc1)*
Tick one outcome: active, inactive

A selection of reference data follows.
COc1cccc2c1C(=O)c1c(O)c3c(c(O)c1C2=O)C[C@@](O)(C(C)=O)C[C@H]3O[C@H]1C[C@H](N)[C@H](O)[C@H](C)O1; active
CCC[C@@H](C=O)NC(=O)[C@H](CC(C)C)NC(=O)[C@H](CC(C)C)NC(=O)OCc1ccccc1 (Cbz-Leu-Leu-[Nva]-aldehyde); active
NC(=O)c1cccc(-c2cccc(OC(=O)NC3CCCCC3)c2)c1; inactive
O=C(O)C=Cc1ccc(Cn2ccnc2)cc1; inactive
CCN(C(=O)c1c(O)c2c(Cl)cccc2n(C)c1=O)c1ccccc1; inactive
NC(=O)c1ncn([C@@H]2O[C@H](CO)[C@@H](O)[C@@H]2O)c1N; inactive
CCn1c(=O)c2c(nc(C=Cc3ccc(OC)c(OC)c3)n2C)n(CC)c1=O; inactive
FC(F)c1nc2ccccc2n1-c1nc(N2CCOCC2)nc(N2CCOCC2)n1; active
CC(C=CC(=O)NO)=C[C@@H](C)C(=O)c1ccc(N(C)C)cc1; active
O=S(=O)(O)CCSSCCS(=O)(=O)O; inactive

Turning now to a further record.
Task item: What was the test verdict on CN1[C@H]2CC(OC(=O)[C@@H](CO)c3ccccc3)C[C@H]1[C@H]1O[C@H]12 (stereo not given in full) ?
Reply: inactive
